Please provide measured Papp A→B for the entries that follow.
# METHOD_NOTES: Membrane permeability test using Caco-2 cells with preincubation
# Format: in vitro ADME
# CONDITION_SET: Caco-2; preincubation 20 to 24 hours; Apical FaSSIF/HBSS pH 6.0, Basal HBSS 4% BSA pH 7.4; 180 minutes; read-out: Caco2 Papp
Starred links: 1 amine or outer side, 2 acyl side, 3 side chain; linkers in the order of their positions; H or OH if unused. Positions of bridges follow the written chain, without caps; N, C: chain ends. Non-standard residues stand in square brackets, D forms with d. Residues, ends and D or L forms follow the SMILES beside them. *: point of attachment. NMeF = CN[C@@H](Cc1ccccc1)C(=O)O; NMeI = CC[C@H](C)[C@H](NC)C(=O)O; NMeT = CN[C@H](C(=O)O)[C@@H](C)O; hPhe = N[C@@H](CCc1ccccc1)C(=O)O; NMeβAla = CN(CCC(=O)[*:2])[*:1]; NMeD = CN[C@@H](CC(=O)O)C(=O)O; NMeL = CN[C@@H](CC(C)C)C(=O)O; NMeV = CN[C@H](C(=O)O)C(C)C; d(β3hA) = C[C@@H](N)CC(=O)O; NMeA = CN[C@@H](C)C(=O)O; Piperidide = C1CCN(*)CC1; Abu = CC[C@H](N)C(=O)O; Sar = CNCC(=O)O; tBu = CC(C)(C)*
The figure you give is taken to be in ×10⁻⁶ cm/s; do not add the unit.

Request: Provide Papp A→B value for the following molecule: CC[C@H](C)[C@@H]1NC(=O)[C@H](CC(C)C)N(C)C(=O)[C@H](CC(C)C)NC(=O)[C@H](C)N(C)C(=O)C[C@@H](C)NC(=O)CN(C)C(=O)[C@H](CC(C)C)N(C)C(=O)[C@H]([C@@H](C)O)NC(=O)[C@H](C(C)C)NC(=O)[C@H]([C@@H](C)CC)N(C)C(=O)[C@H](COC(C)(C)C)NC(=O)[C@H](CC(C)C)N(C)C(=O)[C@H](C)NC(=O)[C@H](Cc2ccccc2)N(C)C1=O [pd009] (cyclo(A[NMeL]S(tBu)[NMeI]VT[NMeL][Sar][d(β3hA)][NMeA]L[NMeL]I[NMeF]))
Response: 0.13

Request: Provide Papp A→B value for the following molecule: CC[C@@H]1NC(=O)[C@H](C(C)C)N(C)C(=O)[C@H](C)N(C)C(=O)[C@H](Cc2ccccc2)N(C)C(=O)[C@H](CC(C)C)NC(=O)[C@H](Cc2ccccc2)N(C)C(=O)[C@H](C(C)C)NC(=O)[C@H](CC(C)C)N(C)C(=O)[C@H]([C@@H](C)CC)NC(=O)[C@H](CC(C)C)N(C)C(=O)CN(C)C(=O)C[C@@H](C(=O)N2CCCCC2)N(C)C(=O)CNC(=O)[C@H](C)N(C)C1=O [pd080] ([Sar][NMeL]I[NMeL]V[NMeF]L[NMeF][NMeA][NMeV][Abu][NMeA]G[NMeD]-Piperidide; lactam N-14)
Response: 0.25

Request: Provide Papp A→B value for the following molecule: CC(C)C[C@@H]1NC(=O)[C@H]([C@@H](C)O)N(C)C(=O)[C@@H](C(C)C)NC(=O)C[C@@H](C(=O)N2CCCCC2)NC(=O)[C@H](C(C)C)N(C)C(=O)[C@H](C)N(C)C(=O)[C@H](C(C)C)NC(=O)[C@H](Cc2ccccc2)N(C)C(=O)[C@@H]2CCCN2C(=O)[C@H](CC(C)C)N(C)C(=O)CN(C)C(=O)[C@H](CCc2ccccc2)NC(=O)[C@H](CC(C)C)N(C)C(=O)[C@H](C(C)C)N(C)C1=O [pd040] ([dV][NMeT]L[NMeV][NMeL][hPhe][Sar][NMeL]P[NMeF]V[NMeA][NMeV]D-Piperidide; lactam N-14)
Response: 0.17

Request: Provide Papp A→B value for the following molecule: CC[C@@H]1NC(=O)[C@H](Cc2ccccc2)N(C)C(=O)[C@H]([C@@H](C)CC)NC(=O)[C@H](CC(C)C)N(C)C(=O)[C@H](CC(C)C)NC(=O)CCN(C)C(=O)C[C@@H](C(=O)N2CCCCC2)NC(=O)[C@H](C(C)C)NC(=O)[C@H](CC(C)C)N(C)C(=O)[C@H](C)N(C)C(=O)[C@H]([C@@H](C)O)NC(=O)[C@H](CC(C)C)N(C)C(=O)[C@H](COC(C)(C)C)NC(=O)[C@H](Cc2ccccc2)N(C)C1=O [pd021] ([NMeβAla]L[NMeL]I[NMeF][Abu][NMeF]S(tBu)[NMeL]T[NMeA][NMeL]VD-Piperidide; lactam N-14)
Response: 0.15
